Numbers sourced from paper PMC6959289.

pEC50 values by entry
Molecular target: sBAD (formerly sHbaR); LexA-HbaR ligand-binding domain-B112 synthetic transcription factor (Rhodopseudomonas palustris, UniProt Q9RFR5)
Sequence (Q9RFR5 1-241 limits assumed): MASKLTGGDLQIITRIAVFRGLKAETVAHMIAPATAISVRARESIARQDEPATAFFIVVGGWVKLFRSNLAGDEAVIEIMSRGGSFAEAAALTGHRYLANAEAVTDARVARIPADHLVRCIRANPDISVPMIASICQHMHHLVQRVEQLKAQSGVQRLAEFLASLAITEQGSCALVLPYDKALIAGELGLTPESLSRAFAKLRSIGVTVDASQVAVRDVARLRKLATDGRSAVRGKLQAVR
Experiment: mCitrine reporter activation in yeast, flow cytometry, dose-response
Excerpt: mCitrine reporter activation in yeast, flow cytometry, dose-response on sBAD (formerly sHbaR); LexA-HbaR ligand-binding domain-B112 synthetic transcription factor
The scale used: pEC50 is minus the common logarithm of the concentration in molar units.

Some entries whose results are on file:
Note to self: pEC50 recorded for O=C(O)c1ccccc1 [benzoic acid] was 4.33

Note to self: pEC50 recorded for Nc1ccc(C(=O)O)cc1 [pABA, 4-aminobenzoic acid] was 3.77

Note to self: pEC50 recorded for CC(=O)Oc1ccccc1C(=O)O [aspirin] was 3.22

More entries:
Note to self: pEC50 recorded for O=C(O)c1ccc(O)cc1 [HBA, 4-hydroxybenzoic acid] was 3.13
